Reference for the values: the RNAGym collection of RNA variant scans (doi:10.1073/pnas.2313332121)

B1: TPR 5TU (parent)
chain: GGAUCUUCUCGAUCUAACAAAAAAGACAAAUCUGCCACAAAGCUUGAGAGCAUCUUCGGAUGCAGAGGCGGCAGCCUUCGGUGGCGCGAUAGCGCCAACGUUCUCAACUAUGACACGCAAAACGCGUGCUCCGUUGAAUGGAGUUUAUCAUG

variants of: B1; experiment: polymerase ribozyme fitness, log enrichment relative to wild type (log ratio); higher = more active; in vitro selection for triplet polymerase activity
Variants at the floor of the assay were thinned out.
Below is a list of entries, each paired with its recorded polymerase ribozyme fitness (log ratio) value.
quantity-kind: polymerase ribozyme fitness (log ratio)

INSERT INTO assay_data (variant_code, quantity_kind, assay_result) VALUES
  ('A12C C32G G84U', 'polymerase ribozyme fitness (log ratio)', '≤ -4.2'),
  ('A66G C76U C85A C96U', 'polymerase ribozyme fitness (log ratio)', '≤ -4.2'),
  ('A16U C54A G81A C85U C114U G136U G143U C149G', 'polymerase ribozyme fitness (log ratio)', '≤ -4.2'),
  ('A26C G34C A52C C75A G80C', 'polymerase ribozyme fitness (log ratio)', '≤ -4.2'),
  ('U15A C38U G58A U61G G68A G83A C87G A106C U145C', 'polymerase ribozyme fitness (log ratio)', '≤ -4.2'),
  ('G50A C51U U55A C76A C105U C108G', 'polymerase ribozyme fitness (log ratio)', '≤ -4.2'),
  ('U4C A49C A52C C99A C132U G136U G140U', 'polymerase ribozyme fitness (log ratio)', '≤ -4.2'),
  ('A30G C51U G68C A121G U127C', 'polymerase ribozyme fitness (log ratio)', '≤ -4.2'),
  ('U13G C35A G50A C54A C76G C87G A89U A107C G141C', 'polymerase ribozyme fitness (log ratio)', '≤ -4.2'),
  ('A29U A41U C69U C95A C118G C125U U148A', 'polymerase ribozyme fitness (log ratio)', '≤ -4.2'),
  ('C85A G92C G141A G143U', 'polymerase ribozyme fitness (log ratio)', '≤ -4.2'),
  ('A40C A49U U56A C57A G88C U135A A137U', 'polymerase ribozyme fitness (log ratio)', '≤ -4.2'),
  ('A29G C131U', 'polymerase ribozyme fitness (log ratio)', '≤ -4.2'),
  ('U61G C99G A138G', 'polymerase ribozyme fitness (log ratio)', '≤ -4.2'),
  ('A20U A49G A66C A73U C79U A106U A107C', 'polymerase ribozyme fitness (log ratio)', '≤ -4.2'),
  ('A29G G58C A73U G92C A98G C125A', 'polymerase ribozyme fitness (log ratio)', '≤ -4.2'),
  ('A3G U15A U90C G94U G124A C125U', 'polymerase ribozyme fitness (log ratio)', '≤ -4.2');
